Target: Ubiquitin carboxyl-terminal hydrolase 17-like protein 5 (Homo sapiens) (UniProt A8MUK1)
Sequence (A8MUK1 whole entry, looked up): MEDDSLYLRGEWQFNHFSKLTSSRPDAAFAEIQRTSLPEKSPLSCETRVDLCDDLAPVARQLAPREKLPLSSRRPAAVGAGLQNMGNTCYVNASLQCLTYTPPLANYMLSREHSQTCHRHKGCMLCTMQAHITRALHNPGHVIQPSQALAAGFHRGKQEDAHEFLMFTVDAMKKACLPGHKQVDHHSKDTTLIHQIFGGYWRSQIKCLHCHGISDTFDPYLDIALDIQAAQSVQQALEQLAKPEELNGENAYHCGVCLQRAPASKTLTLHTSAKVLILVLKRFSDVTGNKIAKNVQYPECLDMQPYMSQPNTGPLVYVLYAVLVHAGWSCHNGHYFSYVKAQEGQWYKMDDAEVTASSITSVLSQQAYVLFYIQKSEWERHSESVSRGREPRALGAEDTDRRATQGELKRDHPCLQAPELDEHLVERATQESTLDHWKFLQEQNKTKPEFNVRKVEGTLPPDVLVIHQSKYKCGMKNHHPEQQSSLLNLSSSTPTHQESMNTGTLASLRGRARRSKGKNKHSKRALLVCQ
Experiment: ubiquitin-specific protease 17 DUB inhibitors, concentration-effect assay, cell-free, verification of initial screening actives (AID 1645864)
Settings: purified USP17, ubiquitin-rhodamine cleavage fluorescence, 3 h
Calls of active or inactive are those of the source.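 Rule for the calls: active = maximal inhibition of USP17 at or above 30% in the confirmation dose-response, a value not among the printed readouts; inactive = the rest.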
Reply using exactly one outcome from active, inactive

Answered examples (3):
- COMPOUND: "CC(C)Oc1ccc(C(=O)Nc2cccc(S(=O)(=O)N3CCCC3)c2)cc1"
  CLASS: "inactive"
- COMPOUND: "CC(=O)c1sc(NC(=O)/C=C/c2ccccc2)nc1-c1ccccc1"
  CLASS: "active"
- COMPOUND: "CCn1c(=O)c2ccccc2n(Cc2nc(-c3ccccc3OC)no2)c1=O"
  CLASS: "inactive"

[Q] Call for entry "COc1cccc(-c2cc(=O)[nH]c(Nc3nc(C)c4ccccc4n3)n2)c1" :
[A] active

[Q] Call for entry "O=C(COc1ccc2oc3c(c2c1)CCCC3)Nc1ccccn1" :
[A] active

[Q] Call for entry "O=C1c2ccccc2-n2c1nc1ccccc1c2=O" :
[A] active

[Q] Call for entry "COc1ccc(-c2cc3c(=O)n(CC(=O)NCCCN4CCCC4)ncn3n2)cc1" :
[A] active

---

Target: Ubiquitin carboxyl-terminal hydrolase 17-like protein 5 (Homo sapiens)
Test: ubiquitin-specific protease 17 DUB inhibitors, concentration-effect assay, cell-free, verification of initial screening actives (AID 1645864)
Conditions: purified USP17, ubiquitin-rhodamine cleavage fluorescence, 3 h
Active and inactive are the calls of the source.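 How the source made its calls: active means maximal inhibition of USP17 at or above 30% in the confirmation dose-response, a value not among the printed readouts; inactive means the rest.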
ASSAY METRIC: IC50

- MOLECULE: "O=C(Cc1ccccc1F)N1CCC2(CC1)CC1(CO2)Nc2ccccc2-n2cccc21 (stereo not given)"
  IC50: "> 50 µM (inactive)"
- MOLECULE: "CN(CCCNC(=O)c1cccc2c1SCCC2=O)c1ccccc1"
  IC50: "> 50 µM (inactive)"
- MOLECULE: "COc1ccc(C2CC(=O)Nc3n[nH]c(-c4ccccc4)c32)cc1OC (stereo not given)"
  IC50: "29.7 µM"
- MOLECULE: "CC1=C[C@H]2N(c3ccc(C)cc31)[C@H](C(=O)c1cccs1)[C@@H](C(=O)c1ccc(F)cc1)[C@]21C(=O)Nc2ccccc21"
  IC50: "> 50 µM (inactive)"
- MOLECULE: "CN1CCN(C(=O)c2cc(-c3ccn(CC4CC4)n3)n3ccccc23)CC1"
  IC50: "> 50 µM (inactive)"
- MOLECULE: "Cc1cc(C(F)(F)F)n2nc(C3CCN(C(=O)c4cnn(C)c4C)C3)cc2n1 (stereo not given)"
  IC50: "30.2 µM"
- MOLECULE: "O=C(Nc1ccc2c(c1)OCCO2)C1CCN(C(=O)c2ccccc2)CC1"
  IC50: "> 50 µM (inactive)"
- MOLECULE: "CNC(=O)C1CN(C(=O)c2ccc(OC)cc2)CC12CCCC2 (stereo not given)"
  IC50: "> 50 µM (inactive)"
- MOLECULE: "Cc1ccc(N2CC(c3nc4ccccc4n3CCCCOc3ccccc3)CC2=O)cc1 (stereo not given)"
  IC50: "> 50 µM (inactive)"

Next:
The value of IC50 measured for the molecule Cc1cc(C2CC(=O)Nc3c2c(C)nn3-c2nc3ccccc3[nH]2)c(C)s1 (stereo not given) turned out to be 23 µM
